Target: CYP3A4 (Homo sapiens, UniProt P08684)
Construct: purchased Invitrogen
Sequence (P08684 2-503 limits assumed): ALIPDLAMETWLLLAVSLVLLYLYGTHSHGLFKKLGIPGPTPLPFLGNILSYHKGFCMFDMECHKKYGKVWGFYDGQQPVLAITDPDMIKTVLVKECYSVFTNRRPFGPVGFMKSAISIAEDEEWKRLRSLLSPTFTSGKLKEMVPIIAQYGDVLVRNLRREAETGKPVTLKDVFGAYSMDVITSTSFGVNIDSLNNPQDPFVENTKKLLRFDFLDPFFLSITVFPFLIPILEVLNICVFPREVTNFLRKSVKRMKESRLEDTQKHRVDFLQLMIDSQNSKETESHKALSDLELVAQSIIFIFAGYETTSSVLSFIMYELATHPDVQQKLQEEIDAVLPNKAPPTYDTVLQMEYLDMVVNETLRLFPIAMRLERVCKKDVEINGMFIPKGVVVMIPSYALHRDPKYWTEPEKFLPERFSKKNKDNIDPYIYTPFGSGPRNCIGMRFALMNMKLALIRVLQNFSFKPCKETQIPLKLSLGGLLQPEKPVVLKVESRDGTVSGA
Test: In-Vitro Cytochrome P450 (CYP450) Inhibition Assay (Vivid CYP450)
Type: in vitro ADME
Conditions: CYP3A4 enzyme complex (Vivid CYP450, Invitrogen), 6 μM test concentration
For each entry below, report its inhibition at 1 hour, 6 µM value.

Specify measured inhibition at 1 hour, 6 µM for NC1(C(=O)O)CCN(CCCc2cc(Cl)ccc2Oc2cc(F)c(S(=O)(=O)Nc3cscn3)cc2Cl)CC1 .
25 to 50%

Supply reported inhibition at 1 hour, 6 µM belonging to this compound: O=C(O)C1CCN(CCCc2cc(Cl)ccc2Oc2cc(F)c(S(=O)(=O)Nc3cscn3)cc2Cl)CC1
0 to 25%

Give reported inhibition at 1 hour, 6 µM value for CC(NC(=O)c1cc(-c2cc(Cl)ccc2Oc2cc(F)c(S(=O)(=O)Nc3ncns3)cc2Cl)ccn1)C(=O)O (racemic)
25 to 50%

Hello, please tell me recorded inhibition at 1 hour, 6 µM for this one: O=C(O)CCCCNC(=O)c1cc(-c2cc(Cl)ccc2Oc2cc(F)c(S(=O)(=O)Nc3ncns3)cc2Cl)ccn1
50 to 100%

###

Target: hNaV1.7 (Homo sapiens)
Construct: expressed in transfected cells
Experiment: FDSS Membrane Potential In-Vitro Assay
Assay type: cell-based
Details: stimulation with veratridine and scorpion venom, read-out: NaV1.7 IC50
pIC50: −log10 of the molar value.
measurementName: pIC50

Quote hNaV1.7 (Homo sapiens) pIC50 for entry CC(NC(=O)c1cc(-c2cc(Cl)ccc2Oc2cc(F)c(S(=O)(=O)Nc3ncns3)cc2Cl)ccn1)C(=O)O (racemic) .
6.00 to 6.89

Give pIC50 only, for CC(C)OC(=O)CNCCCc1cc(Cl)ccc1Oc1cc(F)c(S(=O)(=O)Nc2nccs2)cc1Cl , using hNaV1.7 (Homo sapiens) data.
6.00 to 6.30

Recall the reported pIC50 of CCOC(=O)CN(C)CCCc1cc(Cl)ccc1Oc1cc(F)c(S(=O)(=O)Nc2nccs2)cc1Cl when tested on hNaV1.7 (Homo sapiens).
6.00 to 6.30

Supply pIC50 measured with hNaV1.7 (Homo sapiens) for O=S(=O)(Nc1nccs1)c1cc(Cl)c(Oc2ccccc2-c2cnn3c2NCCC3)cc1F .
6.00 to 6.30

###

Kindly state IC50 for each of the entries shown.
Molecular target: NaV1.7 (Homo sapiens)
Construct: expressed in transfected cells
Test: Patchliner Electrophysiological In-Vitro Assay (NaV1.7)
Format: cell-based
Conditions: Patchliner patch clamp, HEK293, holding at V1/2

Look up and state reported IC50 for N#Cc1cc(S(=O)(=O)Nc2cscn2)ccc1Oc1ccc(Cl)cc1CCCNCCC(=O)O [Compound 23]
100 to 1000 nM

Tell me its IC50 given O=C(O)C1CCN(CCCc2cc(Cl)ccc2Oc2cc(F)c(S(=O)(=O)Nc3ncns3)cc2Cl)CC1 [Compound 32] as the entry.
< 100 nM

Respond only with IC50 recorded for CCCCCOC(=O)N(CCCc1cc(Cl)ccc1Oc1cc(F)c(S(=O)(=O)Nc2nccs2)cc1Cl)CC(=O)O [Compound 53]
< 100 nM

State its IC50 for this compound: O=C(O)CCNCCCc1cc(F)ccc1Oc1cc(F)c(S(=O)(=O)Nc2cscn2)cc1Cl [Compound 25]
100 to 1000 nM

###

Molecular target: hNaV1.7 (Homo sapiens, UniProt Q15858)
Sequence (Q15858 whole entry): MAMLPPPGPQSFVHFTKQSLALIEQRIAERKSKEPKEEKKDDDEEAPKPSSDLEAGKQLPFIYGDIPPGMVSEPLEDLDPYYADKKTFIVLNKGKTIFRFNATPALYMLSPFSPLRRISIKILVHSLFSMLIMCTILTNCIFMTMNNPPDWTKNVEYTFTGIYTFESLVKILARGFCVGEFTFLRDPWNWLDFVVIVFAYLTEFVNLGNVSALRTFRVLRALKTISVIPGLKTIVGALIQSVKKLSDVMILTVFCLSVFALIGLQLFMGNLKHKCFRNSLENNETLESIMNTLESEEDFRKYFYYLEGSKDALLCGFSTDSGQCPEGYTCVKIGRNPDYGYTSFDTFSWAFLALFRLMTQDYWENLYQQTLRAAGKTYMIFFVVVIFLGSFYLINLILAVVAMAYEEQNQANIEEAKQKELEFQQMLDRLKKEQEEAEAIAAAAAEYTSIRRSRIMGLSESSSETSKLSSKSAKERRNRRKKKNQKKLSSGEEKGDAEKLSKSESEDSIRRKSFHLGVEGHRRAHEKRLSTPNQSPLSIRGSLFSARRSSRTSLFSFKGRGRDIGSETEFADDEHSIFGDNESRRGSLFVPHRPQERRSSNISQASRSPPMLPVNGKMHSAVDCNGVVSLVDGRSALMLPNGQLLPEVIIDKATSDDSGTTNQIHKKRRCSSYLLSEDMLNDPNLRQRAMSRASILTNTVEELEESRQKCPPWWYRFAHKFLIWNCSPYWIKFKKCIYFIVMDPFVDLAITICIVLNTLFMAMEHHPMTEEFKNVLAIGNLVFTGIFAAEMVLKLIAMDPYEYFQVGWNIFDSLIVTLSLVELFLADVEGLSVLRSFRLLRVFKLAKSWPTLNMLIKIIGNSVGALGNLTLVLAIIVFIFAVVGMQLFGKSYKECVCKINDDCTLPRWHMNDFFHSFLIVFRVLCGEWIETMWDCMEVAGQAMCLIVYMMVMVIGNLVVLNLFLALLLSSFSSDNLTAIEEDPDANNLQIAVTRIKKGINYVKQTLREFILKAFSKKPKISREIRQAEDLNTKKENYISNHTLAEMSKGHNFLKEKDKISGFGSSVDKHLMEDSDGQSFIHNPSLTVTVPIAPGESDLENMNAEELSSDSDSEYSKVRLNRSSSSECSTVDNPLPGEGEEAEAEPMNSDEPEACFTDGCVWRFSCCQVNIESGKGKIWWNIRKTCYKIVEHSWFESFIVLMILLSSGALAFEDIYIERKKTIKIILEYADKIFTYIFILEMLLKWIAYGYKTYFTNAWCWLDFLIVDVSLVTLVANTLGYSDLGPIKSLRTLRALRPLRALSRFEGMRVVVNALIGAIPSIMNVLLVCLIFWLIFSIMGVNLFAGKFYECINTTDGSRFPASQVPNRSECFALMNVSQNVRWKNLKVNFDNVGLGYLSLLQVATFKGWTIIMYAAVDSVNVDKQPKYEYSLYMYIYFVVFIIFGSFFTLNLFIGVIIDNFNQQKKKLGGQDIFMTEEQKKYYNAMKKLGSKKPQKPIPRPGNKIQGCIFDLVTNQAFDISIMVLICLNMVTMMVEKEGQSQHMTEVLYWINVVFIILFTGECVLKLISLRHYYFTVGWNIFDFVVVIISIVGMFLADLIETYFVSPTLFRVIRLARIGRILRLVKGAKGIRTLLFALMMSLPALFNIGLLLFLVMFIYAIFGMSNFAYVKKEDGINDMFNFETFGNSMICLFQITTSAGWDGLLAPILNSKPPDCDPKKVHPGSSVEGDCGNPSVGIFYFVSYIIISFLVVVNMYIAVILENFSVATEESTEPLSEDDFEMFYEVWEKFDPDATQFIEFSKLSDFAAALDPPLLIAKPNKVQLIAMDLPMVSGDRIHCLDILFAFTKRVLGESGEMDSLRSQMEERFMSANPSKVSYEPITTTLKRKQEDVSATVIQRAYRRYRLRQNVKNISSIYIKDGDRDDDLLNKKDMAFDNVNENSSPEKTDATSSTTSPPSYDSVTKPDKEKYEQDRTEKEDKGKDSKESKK
Sequence (Q07699 19-218 partner): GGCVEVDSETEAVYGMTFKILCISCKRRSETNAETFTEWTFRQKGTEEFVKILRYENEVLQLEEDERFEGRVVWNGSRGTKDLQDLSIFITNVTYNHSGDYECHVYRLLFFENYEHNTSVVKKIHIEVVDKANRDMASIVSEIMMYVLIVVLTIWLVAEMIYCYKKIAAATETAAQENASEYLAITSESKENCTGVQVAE
Sequence (O60939 30-215 partner): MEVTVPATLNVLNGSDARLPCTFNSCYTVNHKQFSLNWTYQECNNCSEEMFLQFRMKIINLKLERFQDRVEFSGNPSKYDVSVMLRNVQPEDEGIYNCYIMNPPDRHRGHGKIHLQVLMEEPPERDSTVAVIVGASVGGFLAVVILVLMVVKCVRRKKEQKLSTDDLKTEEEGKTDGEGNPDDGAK
Experiment: FDSS Membrane Potential In-Vitro Assay
Settings: stimulation with veratridine and scorpion venom, read-out: NaV1.7 IC50
I'd be grateful if you could share measured IC50 for these entries.

Give the measured IC50 for O=C(O)CCCNC(=O)c1cc(-c2cc(Cl)ccc2Oc2cc(F)c(S(=O)(=O)Nc3ncns3)cc2Cl)ccn1
0.13 to 1 µM

Look up and state reported IC50 for O=C(O)CCCCNC(=O)c1cc(-c2cc(Cl)ccc2Oc2cc(F)c(S(=O)(=O)Nc3ncns3)cc2Cl)ccn1
< 0.13 µM

For O=C(O)CNCCCc1cc(Cl)ccc1Oc1cc(F)c(S(=O)(=O)Nc2nccs2)cc1Cl , write its IC50.
< 0.13 µM

Consider the molecule NC1(C(=O)O)CCN(CCCc2cc(Cl)ccc2Oc2cc(F)c(S(=O)(=O)Nc3cscn3)cc2Cl)CC1 and give its recorded IC50.
< 0.13 µM

Values from patent US20160221974A1
